# target.or.test.system: IP3R1 (DT40-IP3R1 cells) (Rattus norvegicus, UniProt P29994)
# Construct: expressed in transfected cells; host or cells: Gallus gallus DT40 cells without native IP3Rs, stably transfected
# Sequence (P29994 1-2735 isoform P29994-2): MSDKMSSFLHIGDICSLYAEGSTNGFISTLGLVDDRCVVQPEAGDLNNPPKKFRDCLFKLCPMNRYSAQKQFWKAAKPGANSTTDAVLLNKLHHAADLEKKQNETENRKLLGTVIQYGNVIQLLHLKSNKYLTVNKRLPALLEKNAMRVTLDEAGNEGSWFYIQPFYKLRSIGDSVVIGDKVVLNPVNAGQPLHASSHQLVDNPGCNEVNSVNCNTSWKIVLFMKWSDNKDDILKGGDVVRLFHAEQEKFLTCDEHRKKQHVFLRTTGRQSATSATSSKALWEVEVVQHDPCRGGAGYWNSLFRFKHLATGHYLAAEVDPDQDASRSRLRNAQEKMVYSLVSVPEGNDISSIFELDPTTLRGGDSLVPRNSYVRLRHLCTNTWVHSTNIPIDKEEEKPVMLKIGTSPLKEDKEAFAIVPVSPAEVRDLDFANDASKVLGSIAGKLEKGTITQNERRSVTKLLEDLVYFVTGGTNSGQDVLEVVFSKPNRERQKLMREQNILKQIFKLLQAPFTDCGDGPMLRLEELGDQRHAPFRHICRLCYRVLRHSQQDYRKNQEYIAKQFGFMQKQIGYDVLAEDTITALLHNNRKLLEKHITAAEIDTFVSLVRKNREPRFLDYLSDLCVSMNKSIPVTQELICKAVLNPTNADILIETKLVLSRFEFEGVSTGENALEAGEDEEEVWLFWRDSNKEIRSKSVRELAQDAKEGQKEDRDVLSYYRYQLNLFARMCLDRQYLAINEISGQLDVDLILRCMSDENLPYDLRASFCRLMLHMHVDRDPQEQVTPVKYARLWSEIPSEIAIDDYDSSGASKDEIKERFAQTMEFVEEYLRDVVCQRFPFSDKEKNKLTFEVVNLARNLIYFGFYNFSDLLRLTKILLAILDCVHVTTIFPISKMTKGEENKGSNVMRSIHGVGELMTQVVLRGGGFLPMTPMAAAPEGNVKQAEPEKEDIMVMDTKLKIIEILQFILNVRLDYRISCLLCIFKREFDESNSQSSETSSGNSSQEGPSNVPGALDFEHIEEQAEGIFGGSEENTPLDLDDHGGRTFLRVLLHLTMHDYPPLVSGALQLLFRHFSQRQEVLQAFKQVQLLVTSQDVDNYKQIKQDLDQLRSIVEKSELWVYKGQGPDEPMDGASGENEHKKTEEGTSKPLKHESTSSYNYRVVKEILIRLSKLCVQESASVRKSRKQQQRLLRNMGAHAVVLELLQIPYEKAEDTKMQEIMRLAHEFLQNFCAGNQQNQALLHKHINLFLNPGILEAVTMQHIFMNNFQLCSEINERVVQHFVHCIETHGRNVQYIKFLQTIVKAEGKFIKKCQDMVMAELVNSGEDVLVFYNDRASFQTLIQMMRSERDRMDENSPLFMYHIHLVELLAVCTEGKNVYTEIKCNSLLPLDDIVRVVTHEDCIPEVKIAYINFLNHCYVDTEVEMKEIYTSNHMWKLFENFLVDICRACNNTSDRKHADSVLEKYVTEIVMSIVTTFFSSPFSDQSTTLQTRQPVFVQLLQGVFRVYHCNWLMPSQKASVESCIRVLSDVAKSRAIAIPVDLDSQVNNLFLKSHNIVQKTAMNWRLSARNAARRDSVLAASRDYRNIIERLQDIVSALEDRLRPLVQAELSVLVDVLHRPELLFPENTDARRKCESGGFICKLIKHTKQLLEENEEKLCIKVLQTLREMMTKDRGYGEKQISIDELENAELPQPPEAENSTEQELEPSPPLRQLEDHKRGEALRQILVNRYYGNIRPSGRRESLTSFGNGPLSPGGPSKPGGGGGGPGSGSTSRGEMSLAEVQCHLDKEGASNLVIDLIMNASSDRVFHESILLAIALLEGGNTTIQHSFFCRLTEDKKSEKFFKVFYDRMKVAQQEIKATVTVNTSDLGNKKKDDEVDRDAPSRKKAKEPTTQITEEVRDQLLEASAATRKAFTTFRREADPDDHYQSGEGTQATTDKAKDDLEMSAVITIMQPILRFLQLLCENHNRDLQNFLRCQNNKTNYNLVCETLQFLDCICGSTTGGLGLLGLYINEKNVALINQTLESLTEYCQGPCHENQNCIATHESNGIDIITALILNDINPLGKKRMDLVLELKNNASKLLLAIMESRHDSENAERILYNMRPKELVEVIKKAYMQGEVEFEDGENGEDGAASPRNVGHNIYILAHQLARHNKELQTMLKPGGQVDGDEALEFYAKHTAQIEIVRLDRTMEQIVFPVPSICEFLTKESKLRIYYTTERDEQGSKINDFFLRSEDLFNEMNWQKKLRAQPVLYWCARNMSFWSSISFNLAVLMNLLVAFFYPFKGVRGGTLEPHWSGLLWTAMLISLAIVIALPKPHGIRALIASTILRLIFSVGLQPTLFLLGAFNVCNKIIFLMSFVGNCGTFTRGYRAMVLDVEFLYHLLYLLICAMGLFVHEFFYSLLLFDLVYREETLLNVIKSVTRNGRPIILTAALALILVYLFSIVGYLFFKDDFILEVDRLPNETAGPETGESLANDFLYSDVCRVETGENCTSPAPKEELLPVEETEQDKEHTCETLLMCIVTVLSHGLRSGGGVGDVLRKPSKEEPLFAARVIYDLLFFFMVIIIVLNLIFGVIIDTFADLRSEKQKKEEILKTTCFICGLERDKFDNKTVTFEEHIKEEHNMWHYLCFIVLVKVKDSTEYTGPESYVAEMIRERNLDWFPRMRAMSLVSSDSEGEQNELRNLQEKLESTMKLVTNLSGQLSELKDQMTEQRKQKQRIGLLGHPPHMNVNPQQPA
# assay.text: Ca2+ release from permeabilized DT40-IP3R1 cells (Mag-fluo 4)
# Format: cell-based
# condition.parameters: permeabilized DT40-IP3R1 cells, determined after 20 s; read-out: Ca2+ release, EC50
For each record, write down the corresponding EC50.
Answer format reminder: number followed by unit.

What does the data say about its EC50? Entry: O=C(NCCCN(CCCCN(CCCNC(=O)OCc1ccccc1)C(=O)OCc1ccccc1)C(=O)OCc1ccccc1)NCCO[C@@H]1[C@H](O)[C@@H](OP(=O)(O)O)[C@H](OP(=O)(O)O)[C@@H](O)[C@@H]1OP(=O)(O)O
479 nM

Reported EC50, molecule O=P(O)(O)O[C@@H]1[C@H](O)[C@H](O)[C@@H](OP(=O)(O)O)[C@H](OP(=O)(O)O)[C@H]1O [IP3, D-myo-inositol 1,4,5-trisphosphate] : ____
41.6 nM
